- target.of.assay: T1, CD81 (UniProt P60033 1-236, limits assumed)
- T1 construct: whole, on cells; also called CD81 receptor
- T1 sequence (looked up): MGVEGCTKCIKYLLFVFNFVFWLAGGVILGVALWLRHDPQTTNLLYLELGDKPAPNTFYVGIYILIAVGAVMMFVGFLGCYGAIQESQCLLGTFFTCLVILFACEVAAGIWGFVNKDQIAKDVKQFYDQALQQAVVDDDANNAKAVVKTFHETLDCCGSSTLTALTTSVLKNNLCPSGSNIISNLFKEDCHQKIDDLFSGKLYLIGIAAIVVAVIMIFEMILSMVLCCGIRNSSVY
- test.name: cell ELISA;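 further: antibody binding to HuH7 cells expressing CD81 versus a CD81-negative HuH7 control line, bound antibody detected by secondary reagent, absorbance at 450 nm with 620 nm reference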
// NB: equality with 0.3 counts as F; only ELISA data strictly below is T

Solved entries:
| binder | class.name |
| --- | --- |
| CD81K13 HC 02-hVH_1_3 / LC 1b-hVK_3_15 (antibody, V domains shown, human constant region) VH: QVQLVQSGAEVKKPGASVKVSCKASGYTFTDSYMHWVRQAPGQRLEWMGRIDTGNGNTKYSQKFQGRVTITTDTSASTAYMELSSLRSEDTAVYYCAPYGYGFHSWGQGTLVTVSS VL: EIVMTQSPATLSVSPGERATLSCRASENIYRTLAWYQQKPGQAPRLLIYGATTLADGIPARFSGSGSGTEFTLTISSLQSEDFAVYYCQHFWGTPWTFGQGTKVEIK | F |
| CD81K13 HC 07-hVH_1_3 / LC 04-hVK_1_9 (antibody, V domains shown, human constant region) VH: QVQLVQSGAEVKKPGASVKVSCKASGYTFKDSYLHWVRQAPGQGLEWMGRIDTGNGNVKFDPKFQGRVTITTDTSASTAYMELSSLRSEDTAVYYCAPYGYGFHSWGQGTLVTVSS VL: DIQLTQSPSFLSASVGDRVTITCRASENIYRTLAWYQQKPGKAPKLLIYAATTLASGVPSRFSGSGSGTEFTLTISSLQPEDFGTYYCQHFWGTPWTFGQGTKVEIK | T |
| CD81K13 HC 07-hVH_1_3 / LC CD81K13 (antibody, V domains shown, human constant region) VH: QVQLVQSGAEVKKPGASVKVSCKASGYTFKDSYLHWVRQAPGQGLEWMGRIDTGNGNVKFDPKFQGRVTITTDTSASTAYMELSSLRSEDTAVYYCAPYGYGFHSWGQGTLVTVSS VL: DIQMTQSPASLSVSVGETVTITCRASENIYRTLAWYLQKQGKSPQLLVYGATTLADGVPSRFSGSGSGTQYYLKINSLQSEDFGTYHCQHFWGTPWTFGGGTKVEIK | F |
| CD81K13 HC 5b-hVH_1_69-GA / LC CD81K13 (antibody, V domains shown, human constant region) VH: QVQLVQSGAELVKPGSSVKVSCKASGFNFKDSYLHWVRQAPGQGLEWMGRIDTGNGNVKFDPKFQGRVTITTDESTSTAYMELSSLRSEDTAVYYCVPYGYGFHSWGQGTLVTVSS VL: DIQMTQSPASLSVSVGETVTITCRASENIYRTLAWYLQKQGKSPQLLVYGATTLADGVPSRFSGSGSGTQYYLKINSLQSEDFGTYHCQHFWGTPWTFGGGTKVEIK | F |
| CD81K13 HC 04-hVH_1_69 / LC 06-hVK_1_39 (antibody, V domains shown, human constant region) VH: EVQLVESGGGLVQPGRSLRLSCTASGFNFKDSYLHWVRQAPGQGLEWMGRIDTGNGNVKFDPKFQGRVTITADESTSTAYMELSSLRSEDTAVYYCVPYGYGFHSWGQGTLVTVSS VL: DIQMTQSPSSLSASVGDRVTITCRASENIYRTLAWYQQKPGKAPKLLIYAATTLASGVPSRFSGSGSGTDFTLTISSLQPEDFGTYYCQHFWGTPWTFGQGTKVEIK | F |
| CD81K13 HC 07-hVH_1_3 / LC 01-hVK_3_15 (antibody, V domains shown, human constant region) VH: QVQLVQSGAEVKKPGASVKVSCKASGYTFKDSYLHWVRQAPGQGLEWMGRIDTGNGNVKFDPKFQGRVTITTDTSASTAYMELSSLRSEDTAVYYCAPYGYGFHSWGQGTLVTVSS VL: EIVMTQSPATLSVSPGERATLSCRASENIYRTLAWYQQKPGQAPRLLIYGATTRATGIPARFSGSGSGTEFTLTISSLQSEDFGVYYCQHFWGTPWTFGQGTKVEIK | F |

### Prompt Does the reported ELISA data of CD81K13 HC 5b-hVH_1_69 / LC 07-hVK_1_27 (antibody, V domains shown, human constant region) VH: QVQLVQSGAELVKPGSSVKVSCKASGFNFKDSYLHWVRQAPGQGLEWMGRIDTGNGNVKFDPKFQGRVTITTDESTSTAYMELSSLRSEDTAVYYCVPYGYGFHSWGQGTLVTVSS VL: DIQMTQSPSSLSASVGDRVTITCRASENIYRTLAWYQQKPGKVPKLLIYAATTLASGVPSRFSGSGSGTDFTLTISSLQPEDVGTYYCQKFWGTPWTFGQGTKVEIK stay below 0.3?
### Response T

### Prompt Does the reported ELISA data of CD81K13 HC 02-hVH_1_3 / LC 1c-hVK_3_15 (antibody, V domains shown, human constant region) VH: QVQLVQSGAEVKKPGASVKVSCKASGYTFTDSYMHWVRQAPGQRLEWMGRIDTGNGNTKYSQKFQGRVTITTDTSASTAYMELSSLRSEDTAVYYCAPYGYGFHSWGQGTLVTVSS VL: EIVMTQSPATLSVSPGERATLSCRASENIYRTLAWYQQKPGQAPRLLIYGATTLADGIPARFSGSGSGTEFTLTISSLQSEDFGVYYCQHFWGTPWTFGQGTKVEIK stay below 0.3?
### Response T

### Prompt Does the reported ELISA data of CD81K13 HC 04-hVH_1_69 / LC 5b-hVK_1_39 (antibody, V domains shown, human constant region) VH: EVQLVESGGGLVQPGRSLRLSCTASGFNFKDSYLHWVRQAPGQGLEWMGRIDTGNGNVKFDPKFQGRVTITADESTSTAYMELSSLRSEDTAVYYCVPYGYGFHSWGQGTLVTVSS VL: DIQMTQSPSSLSASVGDRVTITCRASENIYRTLAWYQQKPGKAPKLLIYGATTLADGVPSRFSGSGSGTDFTLTISSLQPEDFATYYCQHFWGTPWTFGQGTKVEIK stay below 0.3?
### Response F

### Prompt Does the reported ELISA data of CD81K13 HC 01-hVH_1_f / LC CD81K13 (antibody, V domains shown, human constant region) VH: EVQLVQSGAEVKKPGATVKISCKVSGYTFTDSYMHWVQQAPGKGLEWMGRIDTGNGNVKFDPKFQGRVTITADTSTDTAYMELSSLRSEDTAVYYCAPYGYGFHSWGQGTLVTVSS VL: DIQMTQSPASLSVSVGETVTITCRASENIYRTLAWYLQKQGKSPQLLVYGATTLADGVPSRFSGSGSGTQYYLKINSLQSEDFGTYHCQHFWGTPWTFGGGTKVEIK stay below 0.3?
### Response T
